Tested on: K24384-001-R-PDC complex spheroids, viability;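 further: spheroids exposed to compounds for seven days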
Assay: Anticancer human tumor K24384-001-R-PDC patient-derived pancreatic adenocarcinoma cell line growth inhibition [GQUAD]
Conditions: second compound 1 µM; first compound 3.16 µM; stronger effect = lower value
From the text: DNA G-quadruplex Stabilizer Agents in Combinations in Complex Spheroids A high-throughput screen of multi-cell type tumor spheroids was designed to identify active combinations of DNA G-quadruplex stabilizer agents and targeted small molecules. […] Compounds. […] If the clinical Cmax for an agent had not been determined, the highest concentration tested was 10 microM. […]
MEASURE: viability, T/C (%)
// units = %; emit number, no label

// known answers, use as guide
1) CC(C)n1c(=O)n(C)c2cnc3cc(F)c(-c4ccc(OCCCN5CCCCC5)nc4)cc3c21 + Cc1[nH]c2ccc(F)cc2c1-c1nc2c3cccnc3c3ncccc3c2[nH]1 : 134
2) CC(C)(O)C1CCC(Nc2ccc3ncc(-c4cccc(C(F)(F)F)c4)n3n2)CC1 (stereo unspecified) + CN(C)c1ccc(Nc2c3ccc(NC(=O)CCN4CCCC4)cc3nc3cc(NC(=O)CCN4CCCC4)ccc23)cc1 : 28.6
3) CC1COCCN1c1cc(C2(S(C)(=N)=O)CC2)nc(-c2ccnc3[nH]ccc23)n1 (stereo unspecified) + CN(C)c1ccc(Nc2c3ccc(NC(=O)CCN4CCCC4)cc3nc3cc(NC(=O)CCN4CCCC4)ccc23)cc1 : 35.9
4) C=CC(=O)N1CCN(c2nc(=O)n(-c3c(C)ccnc3C(C)C)c3nc(-c4c(O)cccc4F)c(F)cc23)C(C)C1 (stereo unspecified) + Cc1cnc(CNC(=O)c2c(=O)c3ccc(N4CCCN(C)CC4)nc3n3c2sc2ccccc23)cn1 : 59.9
5) CC1COCCN1c1cc(-c2ccnn2C)c2ccnc(-c3ccn[nH]3)c2n1 (stereo unspecified) + Cc1[nH]c2ccc(F)cc2c1-c1nc2c3cccnc3c3ncccc3c2[nH]1 : 39.6

Record summary for CC1COCCN1c1cc(C2(O)CC3CCC(C2)O3)c2cnn(-c3ccn[nH]3)c2n1 (stereo unspecified) + Cc1[nH]c2ccc(F)cc2c1-c1nc2c3cccnc3c3ncccc3c2[nH]1 : reported viability, T/C = 32.4
